# Tested on: NanoLuc
# assay: NanoLuc luciferase reporter expression from constitutive promoters and RBSs integrated with pNBU2
# Assay type: cell-based, B. thetaiotaomicron
# statedConditions: RBS combined with promoter PBT1311, NanoLuc reporter, three biological replicates
Please assign f whenever Average Luminescence (RLU/CFU) is at or above 0.004 RLU/CFU, and t whenever it is below.

1. A15: RBS, SEQ ID NO: 64 (DNA TCCCGCATTTTAAAATAAAATAAATTATTATTTTACTTAAACGAAT; chemistry not fully specified)
f
2. A43: RBS, SEQ ID NO: 131 (DNA TCCCGCATTTTAAAATAAAATAAATTATTCGTTTAATTAAACGAAT; chemistry not fully specified)
t
3. B36: RBS, SEQ ID NO: 112 (DNA TCCCGCATTTTAAAATAAAATAAATCATATAATTAATTAAACGAAT; chemistry not fully specified)
f
4. A45: RBS, SEQ ID NO: 137 (DNA TCCCGCATTTTAAAATAAAATAAATTATTCGTTTACTTAAACGAAT; chemistry not fully specified)
t
5. A35: RBS, SEQ ID NO: 110 (DNA TCCCGCATTTTAAAATAAAATAAATTATTCATTTAGTTAAACGAAT; chemistry not fully specified)
f
6. A30: RBS, SEQ ID NO: 101 (DNA TCCCGCATTTTAAAATAAAATAAATTATTCCTTTACTTAAACGAAT; chemistry not fully specified)
f
